# TARGET: human glucagon receptor (human, UniProt P47871 26-477)
# ASSAY_NAME: cell-based or functional assay
Non-standard residues stand in square brackets, D forms with d. Groups on a side chain read outwards from the residue. Primed or numbered codes have the meaning given here. No end group written: not given here. *: point of attachment. C18 diacid = O=C(O)CCCCCCCCCCCCCCCCC(=O)*; PEG2′ = not defined here; Aib = CC(C)(N)C(=O)O
MEASURED_PARAMETER: GCGR (EC50, nM), CRE-luciferase in HEK-293 cells

{"BINDER": "H[dS]QGTFTSDYSKYLDSK([PEG2′-PEG2′-Glu-C18 diacid])AAHDFVEWLLRA-NH2 [Compound 1]", "NUMERIC_READOUT": 0.54}
{"BINDER": "HSQGTFTSDYSKYLDSRRAQDFVQWLMNTKRNKNNIA (ligand) [Oxyntomodulin]", "NUMERIC_READOUT": 6.2}
{"BINDER": "H[dS]QGTFTSDK([PEG2′-PEG2′-C18 diacid])SKYLD[Aib]RRAQDFVQWLMNTGGPSSGAPPPS-NH2 [Compound 6]", "NUMERIC_READOUT": 0.33}

The reported numbers originate from patent US20170183383A1.
